// provenance: the nanobody polyreactivity screen of Harvey et al. (2022)

EXPERIMENTAL_DETAILS: yeast display, Sf9 membrane polyspecificity reagent, FACS + sequencing; frameworks hold sequencing errors
MEASURED_PROPERTY: polyreactivity (PSR sort gate)

Completed entries (count: 5):
>  <SEQUENCE_DATA>
QVQLVESGGGLVQAGGRLRLSCAASGLIFRAYAMGWYRQAPGKERELVAAISRRGGSTYYADSVKGRFTISRDNAKNTVYLQMNSLKPEDTAVYYCAATSRVSKSHLYGYWGQGTQVTVSS

>  <polyreactivity (PSR sort gate)>
high polyreactivity

$$$$
>  <SEQUENCE_DATA>
QVQLVESGGGLVQAGGSLRLSCAASGIIFRGYDMGWYRQAPGKERELVAVITDDGSTYYADSVKGRFTISRDNAKNTVYLQMNSLKPEDTAVYYCNADYLLGHWIWYDYWGQGTQVTVSS

>  <polyreactivity (PSR sort gate)>
low polyreactivity

$$$$
>  <SEQUENCE_DATA>
QVQLVESGGGLVQAGGSLRLSCAASGRTIVLYVMGWYRQAPGKEREFVADINAGGGSTYYADSVKGRFTISRDNAKNTVYLQMNSLKPEDTSVYYCAATRDLGQLFRFGYWGQSTQVTVSS

>  <polyreactivity (PSR sort gate)>
low polyreactivity

$$$$
>  <SEQUENCE_DATA>
QVQLVESGGGLVQAGGSLRLICAASGLTSGLNAMGWYRPAPGKERELVATIRTNGGSTYYADSVKGRFTISRDNAKNNVYLQMNSLKPEDTAVYYCAADDKGGFAVEYDYWGQGTQVTVSS

>  <polyreactivity (PSR sort gate)>
low polyreactivity

$$$$
>  <SEQUENCE_DATA>
QVQHVESGGGLVQAGGSLRLSCAASGRIFVYYAMGWYRQEPGKERELVATISSGGSTYYADSVKGRFTISRDNAKNTVYLHMNSLKPEDTAVYYCNARDWYLWSTYRSWYDYWGEGTQVTVSS

>  <polyreactivity (PSR sort gate)>
low polyreactivity

$$$$

Name the recorded polyreactivity (PSR sort gate) for `QVQLVESGGGLVQAGGSLRLSCAASALTFRVYAMGWYRQAPGKERELVAAISFSGSSTFYADSVKGRFTISRDNAKNTVYLQMNSMKPEDTAVYYCAAGASEAVDVYDYWGQGTQVTVSS` . low polyreactivity
